Data origin: patent US20250026748A1

biological target: PolQ ATPase enzyme (1-894) (Homo sapiens (Human)); experiment: Polθ ATPase enzymatic assay (0.5 nM enzyme concentration), ADP-Glo; type: biochemical; conditions: average IC50; 0.5 nM PolQ ATPase enzyme (1-894)
Sequence (O75417 1-894): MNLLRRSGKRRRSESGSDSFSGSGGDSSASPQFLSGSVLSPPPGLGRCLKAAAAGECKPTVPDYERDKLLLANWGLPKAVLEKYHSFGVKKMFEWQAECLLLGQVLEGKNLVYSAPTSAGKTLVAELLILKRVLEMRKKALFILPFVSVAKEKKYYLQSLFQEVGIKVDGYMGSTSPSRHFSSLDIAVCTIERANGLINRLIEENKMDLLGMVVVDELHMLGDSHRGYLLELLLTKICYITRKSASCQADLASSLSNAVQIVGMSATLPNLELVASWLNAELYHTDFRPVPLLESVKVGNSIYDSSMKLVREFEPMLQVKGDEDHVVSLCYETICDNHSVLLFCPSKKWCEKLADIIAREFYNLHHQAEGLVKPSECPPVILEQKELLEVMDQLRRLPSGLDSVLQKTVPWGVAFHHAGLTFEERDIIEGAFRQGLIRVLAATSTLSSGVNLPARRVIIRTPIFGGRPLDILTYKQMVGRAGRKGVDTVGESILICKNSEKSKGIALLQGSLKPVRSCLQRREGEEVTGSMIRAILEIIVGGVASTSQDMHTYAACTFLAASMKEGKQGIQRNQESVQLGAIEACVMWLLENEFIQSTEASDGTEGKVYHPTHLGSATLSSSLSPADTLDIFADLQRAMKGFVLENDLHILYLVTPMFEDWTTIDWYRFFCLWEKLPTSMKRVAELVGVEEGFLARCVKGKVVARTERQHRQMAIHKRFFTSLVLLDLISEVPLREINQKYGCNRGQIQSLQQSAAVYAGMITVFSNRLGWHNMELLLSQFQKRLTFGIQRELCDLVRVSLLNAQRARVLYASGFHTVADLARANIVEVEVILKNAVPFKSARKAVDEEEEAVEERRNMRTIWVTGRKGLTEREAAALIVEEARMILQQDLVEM
Readout Kind: IC50 (nM)
Answer format: numeric, nM implied, no suffix.

Solved cases below.
Summary: O=C(Nc1nnc(C#CC2CC2)s1)c1cc2ncnn2cc1-c1cc(Cl)ncc1OC(F)F , PolQ ATPase enzyme (1-894) (Homo sapiens (Human)), IC50 = 2.4

Summary: C#CC1CC1c1nnc(NC(=O)c2ccc(N3CCOCC3=O)cc2-c2cc(C(F)F)ncc2OC)s1 (stereo not shown) [Compound 397] , PolQ ATPase enzyme (1-894) (Homo sapiens (Human)), IC50 = 0.39

Summary: COc1cnc(C(F)F)cc1-c1cc(OCc2ccn(C)n2)ncc1C(=O)Nc1nnc(C#CC2CC2)s1 , PolQ ATPase enzyme (1-894) (Homo sapiens (Human)), IC50 = 0.49

Summary: COc1cnc(C(F)F)cc1-c1cc(-c2ccn(C)n2)ncc1C(=O)Nc1nc(C)c(C#CC2CC2)s1 , PolQ ATPase enzyme (1-894) (Homo sapiens (Human)), IC50 = 115

Next up:
Summary: COc1cnc(C(F)F)cc1-c1cc(N2CCN(C)C(C)(C)C2=O)ncc1C(=O)Nc1nnc(C#CC2CC2)s1 , PolQ ATPase enzyme (1-894) (Homo sapiens (Human)), IC50 = 0.27
